# Protocol Text: 1-month GLP toxicity study in rats
# Assay type: in vivo
# Test Settings: Sprague-Dawley, in vivo, po; rat, 400 mg/kg/day, female; read-out: Cmax at NOAEL
Reported Metric: Cmax (ng/mL)
Answers are plain numbers, in ng/mL.

Challenge: Entry CC1CCCN1C(=O)c1nc(C(=O)NCC(C)(C)O)sc1-c1ccc(C(O)(C(F)(F)F)C(F)(F)F)c(Cl)c1Cl (stereo not shown) [JNJ-61803534] : reported Cmax = ?
Response given: 24200

====

# Protocol Text: phase 1 single ascending dose study, pharmacokinetics
# Assay type: in vivo, human
# Test Settings: both sexes, human, plasma, po, 100 mg, 100 mg single oral dose, fasted, n=9; median (range); read-out: tmax
Reported Metric: Tmax (h)
One number for each entry, in h.

Challenge: Entry CC1CCCN1C(=O)c1nc(C(=O)NCC(C)(C)O)sc1-c1ccc(C(O)(C(F)(F)F)C(F)(F)F)c(Cl)c1Cl (stereo not shown) [JNJ-61803534] : reported Tmax = ?
Response given: 6
